Data credit: patent US20130109682A1

Reported IC50 is given for each of the following molecules.
- target of assay: PIM3 (Homo sapiens, UniProt Q86V86)
- test protocol: KinaseGlo Pim3 ATP depletion assay
- Type: biochemical

Some solved cases for reference:
Prompt: Consider the molecule C[C@@H]1C[C@H](O)C[C@H](c2ccncc2NC(=O)c2ccc(F)c(-c3c(F)cccc3F)n2)O1 (stereo in doubt) and give its measured IC50.
Response: 52 nM

Prompt: Consider the molecule `CC[C@H]1O[C@@H](c2ccncc2NC(=O)c2csc(-c3c(F)cccc3F)n2)C[C@@H](O)[C@@H]1O` and give its measured IC50.
Response: 7 nM

Prompt: Consider the molecule `CC[C@]1(O)[C@H](O)C[C@H](c2ccncc2NC(=O)c2nc(-c3ccccc3)ncc2N)O[C@@H]1C` and give its measured IC50.
Response: 2 nM

Prompt: Consider the molecule `[2H][C@@H]1[C@@H](O)[C@H](O)[C@@H](CC)O[C@@]1([2H])c1ccncc1NC(=O)c1ccc(F)c(-c2c(F)cccc2F)n1` and give its measured IC50.
Response: 2 nM

Prompt: Consider the molecule `Nc1cc(F)c(-c2ccccc2F)nc1C(=O)Nc1cnccc1C1=CC(=O)[C@H](O)[C@@H](CCl)O1` and give its measured IC50.
Response: 25.1 nM

More entries:
Prompt: Consider the molecule `Nc1ccc(-c2c(F)cccc2F)nc1C(=O)Nc1cnccc1[C@H]1C[C@@H](N)[C@@]2(O)CCC[C@H]2O1` and give its measured IC50.
Response: 4 nM

Prompt: Consider the molecule `N[C@@H]1C[C@H](c2ccncc2NC(=O)c2ccc(F)c(-c3c(F)cccc3F)n2)O[C@@H]2CCC[C@]12O` and give its measured IC50.
Response: 2.3 nM

====

- target of assay: GSK3β (Homo sapiens, UniProt P49841)
- Sequence (P49841 whole entry, species assumed): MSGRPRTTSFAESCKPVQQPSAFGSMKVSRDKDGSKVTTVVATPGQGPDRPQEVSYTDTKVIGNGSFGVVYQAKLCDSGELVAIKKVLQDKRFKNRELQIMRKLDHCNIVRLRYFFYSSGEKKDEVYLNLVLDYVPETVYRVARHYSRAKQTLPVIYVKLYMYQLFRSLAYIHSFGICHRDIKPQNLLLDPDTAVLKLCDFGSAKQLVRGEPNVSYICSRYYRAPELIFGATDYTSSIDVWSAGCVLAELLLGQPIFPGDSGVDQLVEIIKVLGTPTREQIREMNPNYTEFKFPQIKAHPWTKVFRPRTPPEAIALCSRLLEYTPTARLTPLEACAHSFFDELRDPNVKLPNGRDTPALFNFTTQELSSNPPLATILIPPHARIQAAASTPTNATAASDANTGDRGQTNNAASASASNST
- test protocol: GSK3β ATP depletion assay
- Format: biochemical
- condition summary: read-out: GSK3b IC50
Reported pIC50 is given for each of the following molecules.
pIC50 here: minus log base 10 of the concentration, concentration in moles per litre.

Some solved cases for reference:
Prompt: Notebook entry, GSK3β (Homo sapiens, UniProt P49841) assay: pIC50 of `C=C1[C@@H](O)C[C@@H](c2ccncc2NC(=O)c2ccc(F)c(-c3c(F)cccc3F)n2)OC12CC2` = ?
Response: 6.06

Prompt: Notebook entry, GSK3β (Homo sapiens, UniProt P49841) assay: pIC50 of `O=C(Nc1cnccc1C1=C[C@@H](O)[C@H](O)[C@@H](CCl)O1)c1ccc(F)c(-c2c(F)cccc2F)n1` = ?
Response: 6.93

Prompt: Notebook entry, GSK3β (Homo sapiens, UniProt P49841) assay: pIC50 of `Nc1cc(F)c(-c2ccccc2F)nc1C(=O)Nc1cnccc1C1=C[C@@H](O)[C@H](O)[C@@H](CCl)O1` = ?
Response: 7.39

Prompt: Notebook entry, GSK3β (Homo sapiens, UniProt P49841) assay: pIC50 of `O=C(Nc1cnccc1[C@H]1C[C@@H](O)[C@@]2(O)CCC[C@H]2O1)c1ccc(F)c(-c2c(F)cccc2F)n1` = ?
Response: 7.34

Prompt: Notebook entry, GSK3β (Homo sapiens, UniProt P49841) assay: pIC50 of `O=C(Nc1cnccc1[C@H]1OCC[C@@H](CO)O1)c1ccc(F)c(-c2c(F)cccc2F)n1` = ?
Response: 5.62

Let us move to another entry and its pIC50.
Prompt: Notebook entry, GSK3β (Homo sapiens, UniProt P49841) assay: pIC50 of `C[C@@H]1O[C@H](c2ccncc2NC(=O)c2nc(-c3ccccc3)cnc2N)C[C@H](O)[C@@]1(C)O` = ?
Response: 8.52
